Cited source for all entries: PubChem BioAssay AID617

# Test system: E. coli BW25113 ΔtolC growth inhibition, OD615
# assay remarks: growth inhibitors of E. coli tolC mutant, dose response, strain BW25113 ΔtolC::kan (AID 617);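 further: growth read after 20 h at 37 °C with compound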
quantity: IC50

Examples from the recorded data:
Suppose we examine the compound `CCc1nc2ccccc2c(=O)n1NC(=O)c1c(O)c2ccccc2[nH]c1=O` ; what IC50 value has been reported? 5.7 µM

Suppose we examine the compound COc1ccc(/C(O)=C2\C(=O)C(=O)N(CC3CCCO3)C2c2cc(OC)ccc2OC)cc1 (configuration not stated) ; what IC50 value has been reported? 11.8 µM

Suppose we examine the compound `CCOC(=O)c1cccc2c1-c1ccccc1/C2=N/O` ; what IC50 value has been reported? 97.1 µM

Suppose we examine the compound `Cc1[nH]c2ccccc2c1NC(=O)CN1CCN(c2cccc(C(F)(F)F)c2)CC1` ; what IC50 value has been reported? 12.5 µM

Continuing:
Suppose we examine the compound `N#Cc1nc(COc2ccc(Br)cc2)oc1NCCCn1ccnc1` ; what IC50 value has been reported? 23.7 µM

Suppose we examine the compound O=C(Nc1nccs1)C(NS(=O)(=O)c1ccc(Br)s1)c1ccccc1 (configuration not stated) ; what IC50 value has been reported? 12.8 µM

Suppose we examine the compound O=S(=O)(NC1CCCC1)c1ccc(S(=O)(=O)N(Cc2cccs2)CC2CCCO2)cc1 (configuration not stated) ; what IC50 value has been reported? 21 µM

====

# Tested on: E. coli BW25113 ΔtolC growth inhibition, OD615
# assay remarks: growth inhibitors of E. coli tolC mutant, dose response, strain BW25113 ΔtolC::kan (AID 617);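 further: growth read after 20 h at 37 °C with compound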
pIC50: −log10 of the molar value.
# binarize pIC50: threshold 5 inclusive, high side MET, low side NOT MET

Below are worked cases with known answers.
Hi team, for `COc1ccc(-c2n[nH]c(C(F)(F)F)c2-c2cc3ccccc3o2)c(O)c1` , is the recorded pIC50 at or above 5? MET

Hi team, for `O=S(=O)(Nc1nc2ccccc2nc1NCc1ccco1)c1ccc(Cl)cc1` , is the recorded pIC50 at or above 5? MET

Hi team, for CCSC(C)CC1C/C(=N/O)c2c(CC)noc2C1 (stereo unspecified) , is the recorded pIC50 at or above 5? NOT MET

Now examine the next entry.
Hi team, for `CCCCNC(=O)c1sc(=S)n2c1[nH]c(=O)c1ccccc12` , is the recorded pIC50 at or above 5? MET

====

# Test system: E. coli BW25113 ΔtolC growth inhibition, OD615
# assay remarks: growth inhibitors of E. coli tolC mutant, dose response, strain BW25113 ΔtolC::kan (AID 617);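 further: growth read after 20 h at 37 °C with compound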
# pIC50 listing for each entry below
Please note pIC50 is a logarithmic value: minus log10 of concentration in mol/L. Answer with that number alone.

Examples from the recorded data:
Suppose we examine the molecule `Cc1ccc(Cl)cc1N1CCN(C(=O)COc2ccc(S(=O)(=O)NC(C)C)cc2)CC1` ; what pIC50 value has been reported? 4.97

Suppose we examine the molecule `Cc1ccc(Nc2nc(CSc3nnnn3-c3ccccc3)cs2)cc1` ; what pIC50 value has been reported? 4.94

Suppose we examine the molecule `CN(Cc1ccccc1)c1nc2c(c(=O)n(C)c(=O)n2C)n1CCCc1ccccc1` ; what pIC50 value has been reported? 5.12

Suppose we examine the molecule `CCCCCn1c(CN2CCN(c3cccc(Cl)c3)CC2)nc2c1c(=O)n(C)c(=O)n2C` ; what pIC50 value has been reported? 4.82

Continuing:
Suppose we examine the molecule `O=C(CSc1nc2ccccc2[nH]1)Nc1cc(C(F)(F)F)ccc1N1CCOCC1` ; what pIC50 value has been reported? 5.22
